# Test system: NCI-H226 lung
# assay.info: NCI-60 one-dose screen, 48 h
# experimental.parameters: 10 µM unless noted
About 83,000 compounds went through this panel and 20% of them were active in at least one assay; those are over-represented in the sample as a whole. Activity calls are given as the source filed them. The calls were made as follows: active = growth percent below 10; inactive = the rest.
Outcomes: active, inactive

compound: CS(=O)(=O)Nc1cc(-c2ccc3ncc(C#N)c(NCc4ccccc4F)c3c2)cnc1Cl
assigned.class: inactive
--
compound: N=c1c2cc(-c3ccccc3)oc2ncn1/N=C/c1ccc(Cl)cc1
assigned.class: inactive
--
compound: C=C(C)[C@@H]1CC[C@]2(COCCCNCCC#N)CC[C@]3(C)[C@H](CC[C@@H]4[C@@]5(C)CC[C@H](OCCCNCCC#N)C(C)(C)[C@@H]5CC[C@]43C)[C@@H]12
assigned.class: inactive
--
compound: COc1ccccc1NC1=C(Cl)C(=O)c2nc(C)ccc2C1=O
assigned.class: inactive
--
compound: N/C(=N\C(N)=N\c1nc2ccccc2s1)c1cccc(F)c1
assigned.class: inactive
--
compound: CCn1c(SCC(=O)Nc2cccc(C(=O)/C=C/c3ccc(C)cc3)c2)nc2ccccc2c1=O
assigned.class: inactive
--
compound: COc1c(N2CC3CCCNC3C2)c(F)cc2c(=O)c(C(=O)N/N=C/c3ccc(F)cc3)cn(C3CC3)c12 (centres undefined)
assigned.class: inactive
--
compound: O=C(c1ccc(O)cc1)[C@@H]1CN[C@@]2(C(=O)Nc3ccccc32)[C@H]1c1ccc(F)cc1
assigned.class: inactive
--
compound: NS(=O)(=O)c1ccc(Nc2nc(N/N=C/c3ccc(Cl)cc3)nc(Nc3ccccc3)n2)cc1
assigned.class: inactive
--
compound: Cc1ccc(-c2nnc(SCc3ccc(O)c4ncccc34)n2-c2ccccc2)cc1
assigned.class: inactive
--
compound: O=C1[C@H]2Cc3c([nH]c4ccccc34)[C@@H](c3ccc(Cl)cc3)N2C(=O)CN1C1CCN(Cc2ccccc2)CC1
assigned.class: inactive
--
compound: COc1ccc2[nH]cc(-c3csc4nc(-c5ccccc5)cn34)c2c1
assigned.class: inactive
--
compound: N#Cc1cccc(/C(N)=N/C(N)=N/c2nc3ccccc3s2)c1
assigned.class: inactive
--
compound: COc1ccc(S(=O)(=O)NCCCNc2nccc(-c3[nH]c(-c4ccccc4)nc3-c3ccc(Cl)c(O)c3)n2)cc1
assigned.class: inactive
--
compound: CCNC(=O)N1CCc2cc(OC)c(OCCc3ccc(OC)nc3)cc2C1c1ccc(C)cc1C (centres undefined)
assigned.class: inactive
--
compound: O=C(CSc1nnc(-c2ccc(Cl)cc2)n1-c1ccccc1)Nc1ccc(Br)cc1
assigned.class: active
--
compound: N#Cc1ccccc1Cn1c2nc(=N)c3ccccc3c-2nc2ccccc21
assigned.class: inactive
--
compound: O=C(CCC(=O)N1CCOCC1)OCCCCCCSc1ccc([N+](=O)[O-])c2nonc12
assigned.class: active
--
compound: Cn1cc(-c2nnc(N)nc2-c2c[nH]c3ccc(F)cc23)c2cc(F)ccc21
assigned.class: inactive
